Collected from the literature: Ki of various compounds toward Beta-secretase 2 (Homo sapiens, UniProt Q9Y5Z0).
endpoint name: Ki (nM)

Worked cases, Ki given:
{"columns": ["smiles notation", "Ki (nM)"],
 "data": [
  ["COc1cnc2c(Nc3ccc4c(c3)[C@@]3(C)NC(=N)N(C)S(=O)(=O)[C@H]3CCO4)ccnc2c1", 1790],
  ["COc1cnc2c(Nc3cc([C@]4(C)CS(=O)(=O)[C@@](C)(C5CC5)C(N)=N4)c(F)cn3)nccc2n1", 1.3]
]}

P. C[C@H]1C[C@H]2C(=O)N(C)C(=N)N[C@@]2(c2cc(=O)n(CC3CC3)cc2F)CO1
Q. CNC(=O)N1CC2(C1)C(=N)N[C@](C)(c1cc(NC(=O)c3ccc(OC)cn3)ccc1F)CS2(=O)=O
R. C[C@@]1(c2sc(-c3cccc(-c4nnco4)c3)cc2Cl)Cc2ncncc2C(=N)N1
[in] Endpoint returns the given compounds ordered by ascending Ki. Please, when replying, give the labels in the order that was requested.
[out] Q, R, P
(Q: 1.7 nM, R: 37.3 nM, P: 1590 nM)

====

Assay read-out Ki on UniProtKB Q9Y5Z0; records merged from the literature.
endpoint name: Ki (µM)

{"columns": ["smiles notation", "Ki (µM)"],
 "data": [
  ["CN1C(=N)N[C@@]2(c3cc(Oc4cccc(-c5cocn5)c4)ccc3F)CO[C@@H](C3CC3)C[C@H]2C1=O", 0.086],
  ["COc1cnc(C(=O)Nc2ccc3c(c2)[C@@]2(C)NC(=N)N(C)S(=O)(=O)[C@@H]2CCO3)cn1", 5.61],
  ["COc1cnc2c(Nc3cc([C@]4(C)CS(=O)(=O)[C@@](C)(C5CC5)C(N)=N4)c(F)cn3)ccnc2c1", 0.0019],
  ["C[C@@H]1C[C@@H]2[C@](c3ccccc3F)(CO1)NC(=N)C(C)(C)S2(=O)=O", 6.26],
  ["CN1C(=N)N[C@](C)(c2sc(-c3nnc(-c4cocn4)o3)cc2Cl)CS1(=O)=O", 0.143]
]}

a. COc1cnc(C(=O)Nc2ccc3c(c2)[C@]2(CCO3)CS(=O)(=O)C(C)(C)C(=N)N2)c(C)n1
b. C[C@@]1(c2cc([N+](=O)[O-])ccc2F)CS(=O)(=O)C2(CCC2)C(=N)N1
c. Cc1nc(C(=O)Nc2ccc3c(c2)[C@]2(CCO3)CS(=O)(=O)C(C)(C)C(=N)N2)no1
[in] # desc sort on Ki across 3 molecules Output spec: labels arranged per the requested ranking.
[out] b, a, c

====

pKi: −log10 of the molar value.
Please find below pKi data on Beta-secretase 2 (Homo sapiens, UniProt Q9Y5Z0) compiled from the literature.
endpoint name: pKi

{"columns": ["smiles notation", "value"],
 "data": [
  ["CC1(C)C(=N)N[C@@]2(COCc3ccc(NC(=O)c4ncc(C(F)(F)F)cn4)cc32)CS1(=O)=O", 6.29]
]}

I. CO/N=C(/Nc1ccc(F)c([C@]2(C)CS(=O)(=O)N(C)C(=N)N2)c1)c1ccc(OC)cn1
II. CC1(C)C(=N)N[C@@]2(COCc3ccc(NC(=O)c4cnc(OCCF)cn4)cc32)CS1(=O)=O
III. COc1ccc(C(=O)Nc2ccc3c(c2)[C@]2(CCO3)CS(=O)(=O)C(C)(C)C(=N)N2)nc1
IV. C[C@]1(c2sc(-c3cccc(C#N)c3)cc2Cl)NC(=N)c2cncnc2C1(F)F
V. C#CCOc1cnc(C(=O)Nc2ccc3c(c2)[C@]2(COC3)CS(=O)(=O)C(C)(C)C(=N)N2)cn1
[in] Hey, can you sort those molecules up there by pKi, smallest first? Field: ranking. Enter the labels in the order requested.
[out] I, II, IV, V, III

1. CN1C(=N)N[C@](C)(c2sc(-c3nnc(-c4ccncc4)o3)cc2Cl)CS1(=O)=O
2. C#CCOc1ccc(C(=O)Nc2ccc3c(c2)[C@]2(COC3)CS(=O)(=O)C(C)(C)C(=N)N2)nc1
[in] Please indicate which item has the smaller measured pKi: 1 versus 2 Identify your pick by its label.
[out] 1
